system: V79 (Chinese Hamster Lung Fibroblasts) cells; test: In vitro cytotoxicity assay (light EC50, Alamar blue); assay type: cell-based; details: Table 4 azaporphyrins, 575 nm (Pt azaporphyrins 532 nm), 1.25 J/cm^2, read-out: In Vitro EC(50)
pEC50: −log10 of the molar value.
Classification field: enter label 1 for pEC50 values not below 7, label 0 for values below it.

Compound	Category Label
CCC1=C(CC)C2=Nc3c(CC)c(CC)c4[n]3[Pt][n]3c(c(C)c(CCC(=O)NCCOCCO)c3=CC3=NC(=C4)C(C)=C3CCC(=O)NCCOCCO)=CC1=N2 [Example 101]	label 0
C=CC1=C(C)C2=Nc3c(C=C)c(C)c4[n]3[Ga-2]35([Cl])[n]6c(c(C)c(CCC(=O)NC)c6=CC6=[N+]3C(=C4)C(C)=C6CCC(=O)NC)=CC1=[N+]25 [M=Ga R1,R3=Me R2,R4=V R=CONHMe]	label 0
CCC1=C(CC)C2=Nc3c(CC)c(CC)c4[n]3[Pt][n]3c(c(C)c(CCCO)c3=CC3=NC(=C4)C(C)=C3CCCO)=CC1=N2 [Example 105]	label 1
CCC1=C(CC)C2=Nc3c(CC)c(CC)c4[n]3[Pt][n]3c(c(C)c(CCC(=O)NCCOC)c3=CC3=NC(=C4)C(C)=C3CCC(=O)NCCOC)=CC1=N2 [Example 96]	label 0
